# key: entry, value: Solubility 10 wt/vol % HPCD water
experiment: Solubility in water and formulations; details: Na salts in aqueous 10 wt/vol % HPCD
Readout Name: Solubility 10 wt/vol % HPCD water (mg/mL)

INSERT INTO assay_data (chemical_smiles, readout_name, numeric_readout) VALUES
  ('[NH-]S(=O)(=O)c1nn2cc(-c3ccc(N4CCOCC4)cc3)nc2s1.[Na+]', 'Solubility 10 wt/vol % HPCD water', 15),
  ('[NH-]S(=O)(=O)c1nn2cc(-c3ccc(Oc4ccc(Cl)cc4)cc3)nc2s1.[Na+]', 'Solubility 10 wt/vol % HPCD water', 20),
  ('[NH-]S(=O)(=O)c1nn2cc(-c3ccc(-c4cccc(C(F)(F)F)c4)cc3)nc2s1.[Na+]', 'Solubility 10 wt/vol % HPCD water', 4),
  ('COc1cccc(-c2ccc(-c3cn4nc(S([NH-])(=O)=O)sc4n3)cc2)c1.[Na+]', 'Solubility 10 wt/vol % HPCD water', 10),
  ('[NH-]S(=O)(=O)c1nn2cc(-c3ccccc3)nc2s1.[Na+]', 'Solubility 10 wt/vol % HPCD water', 20);

---

experiment: Solubility in water and formulations; conditions: PBS/HPCD (25:75) solution
Readout Name: Solubility in 10 wt/vol HPCD (µg/mL)

INSERT INTO results (molecule, readout_name, numeric_readout) VALUES
  ('COCCOCC(=O)NS(=O)(=O)c1nn2cc(-c3ccc(-c4cccc(C(F)(F)F)c4)cc3)nc2s1', 'Solubility in 10 wt/vol HPCD', 10000),
  ('COCC(=O)NS(=O)(=O)c1nn2cc(-c3ccc(-c4cccc(C(F)(F)F)c4)cc3)nc2s1', 'Solubility in 10 wt/vol HPCD', 10000),
  ('CCCC(=O)NS(=O)(=O)c1nn2cc(-c3ccccc3)nc2s1', 'Solubility in 10 wt/vol HPCD', 4000),
  ('O=C(O)CCC(=O)NS(=O)(=O)c1nn2cc(-c3ccccc3)nc2s1', 'Solubility in 10 wt/vol HPCD', 8000),
  ('CCCC(=O)NS(=O)(=O)c1nn2cc(-c3ccc(-c4cccc(C(F)(F)F)c4)cc3)nc2s1', 'Solubility in 10 wt/vol HPCD', 5000),
  ('COCCOCCOCC(=O)NS(=O)(=O)c1nn2cc(-c3ccc(-c4cccc(C(F)(F)F)c4)cc3)nc2s1', 'Solubility in 10 wt/vol HPCD', 10000),
  ('CC(=O)NS(=O)(=O)c1nn2cc(-c3ccc(N4CCOCC4)cc3)nc2s1', 'Solubility in 10 wt/vol HPCD', 10000),
  ('CC(=O)NCC(=O)NS(=O)(=O)c1nn2cc(-c3ccccc3)nc2s1', 'Solubility in 10 wt/vol HPCD', 10000),
  ('CC(C)(C)OC(=O)NS(=O)(=O)c1nn2cc(-c3ccc(-c4cccc(C(F)(F)F)c4)cc3)nc2s1', 'Solubility in 10 wt/vol HPCD', 5000),
  ('CC(=O)NS(=O)(=O)c1nn2cc(-c3ccccc3)nc2s1', 'Solubility in 10 wt/vol HPCD', 10000),
  ('CC(=O)NS(=O)(=O)c1nn2cc(-c3ccc(-c4cccc(C(F)(F)F)c4)cc3)nc2s1', 'Solubility in 10 wt/vol HPCD', 10000),
  ('CC(C)(C)OC(=O)NCC(=O)NS(=O)(=O)c1nn2cc(-c3ccccc3)nc2s1', 'Solubility in 10 wt/vol HPCD', 10000),
  ('CSCCC(NC(=O)OC(C)(C)C)C(=O)NS(=O)(=O)c1nn2cc(-c3ccccc3)nc2s1 (stereo not shown)', 'Solubility in 10 wt/vol HPCD', 5000);
